test system: Fibroblast; test: Multiplex assay against human fibroblast; type: toxicity, cell-based; conditions: 24 h, 1 µM, compound concentration 1 uM, replicate 1
assayReadout: Population Apoptotic (%)

                                   compound  readoutvalue
0  N[C@@]1(C(=O)O)CO[C@H]2[C@H](C(=O)O)[C@H]21            36
1   CN(C)c1ccnc2sc3c(=O)n(N4CCCCCC4)cnc3c12            48
2  Oc1c(CN2CCN(c3ccccn3)CC2)cc(Cl)c2cccnc12            50
3  CN1CCN(c2nc3cc(C(F)(F)F)ccc3n3cccc23)CC1.O=C(O)/C=C\C(=O)O.O=C(O)/C=C\C(=O)O            66
4  CCCN1CCC[C@@H]2Cc3n[nH]cc3C[C@H]21.Cl [QUINPIROLE HYDROCHLORIDE]            52
5  Cl.Clc1ccc2nsnc2c1NC1=NCCN1 [TIZANIDINE HYDROCHLORIDE]            52
6  CN(C)CCCc1cc(C(=O)Nc2ccc(-c3ccncc3)cc2)ccc1O.Cl.Cl            30
7  COc1cc(C(=O)N(CCCc2ccccc2)Cc2ccc(CC(=O)O)cc2)cc(OC)c1C            68
8  O=C(O)c1cc2ccccc2c(Cc2c(O)c(C(=O)O)cc3ccccc23)c1O            33

----------
// reported Population Apoptotic (%) per item
test system: Fibroblast; experiment: Multiplex assay against human fibroblast; assay type: toxicity, cell-based; conditions: 24 h, 1 µM, compound concentration 1 uM, replicate 1
assayReadout: Population Apoptotic (%)

>>> print(df.to_string())
                                   molecule  units  readoutvalue
0  O=C(NCC(=O)N1CC[C@H](N[C@H]2CC[C@@](O)(c3ccc(-c4ncccn4)cn3)CC2)C1)c1cccc(C(F)(F)F)c1      %            61
1  COc1c(C)cc(NC(=O)c2nn(Cc3ccc(F)cc3)c3c2CN(C(=O)c2ccc[nH]2)C[C@]3(C)C(N)=O)cc1C      %            66
2  CC(C)(C)c1ccc(S(=O)(=O)Nc2ccc(Cl)cc2C(=O)c2cc[n+]([O-])cc2)cc1      %            55
3  O=C(NCCO)c1cccc(-c2cc(Nc3ccc(OC(F)(F)F)cc3)ncn2)c1      %            56

----------
test system: U2OS; test: Multiplex assay against U2OS; assay type: toxicity, cell-based; settings: human, 12 h, 1 µM, compound concentration 1 uM, replicate 1
Label 1 (yes) when Population Tubulin-Different-Phenotype (%) >= 2%; otherwise 0 (no).

>>> print(df.to_string())
                                   compound  targetofassay  answerlabel
0  O=C(O)c1cc2ccccc2c(Cc2c(O)c(C(=O)O)cc3ccccc23)c1O           U2OS       0 (no)
1  COc1c(C)cc(NC(=O)c2nn(Cc3ccc(F)cc3)c3c2CN(C(=O)c2ccc[nH]2)C[C@]3(C)C(N)=O)cc1C           U2OS      1 (yes)
2  CC1(COc2ccc3c(c2)ncn3-c2ccc3cccc(N4CCC(N)CC4)c3n2)COC1           U2OS      1 (yes)
3  COc1cc(NC(=O)CCN2CCC(OC(=O)Nc3ccccc3-c3ccccc3)CC2)c(Cl)cc1CNC[C@H](O)c1ccc(O)c2[nH]c(=O)ccc12           U2OS      1 (yes)
4  CN1CCN(c2nc3cc(C(F)(F)F)ccc3n3cccc23)CC1.O=C(O)/C=C\C(=O)O.O=C(O)/C=C\C(=O)O           U2OS       0 (no)
5        Cc1ccc(/C(=C\CN2CCCC2)c2ccccn2)cc1           U2OS       0 (no)
6  COc1cc(C(=O)N(CCCc2ccccc2)Cc2ccc(CC(=O)O)cc2)cc(OC)c1C           U2OS      1 (yes)
7  CSc1ccccc1N1CCN(CCCCCC(=O)NC2CCCc3ccccc32)CC1.Cl (centres undefined)           U2OS      1 (yes)
